B1: library; a variant is named by its letters at X, in order (parent)
chain: MNIQIGELAKRTACPVVTIRFYEQEGLLPPPGRSRGNFRLYGEEHVERLQFIRHCRSLDMPLSXVRTLLSYRKRPDQDCGEVXMLLDEHXRQVESRIGALLELXHXLVELREACSGARPAQSCGILQGLSDCVCDTRGTTAHXSD

- Variants of: B1
- assay.method.text: sfGFP reporter fluorescence (15 h) (µM FITC); higher = higher leak
- cond: library round: Round 3b; ligand: none
measured.endpoint: sfGFP reporter fluorescence
Provide a numeric answer; units are not to be included.

Briefly, sfGFP reporter fluorescence measured for DFAVET : 0.0447

Value of measured sfGFP reporter fluorescence for the entry DIATAT : 0.0409

Form field sfGFP reporter fluorescence, entry KFITHR : 0.0496

Entry under test: KNATHT . Its sfGFP reporter fluorescence was 0.0681

Looking up KIITHR , I see its sfGFP reporter fluorescence listed as 0.0506

Input DIAVHT . Output sfGFP reporter fluorescence: 0.0457
